Recorded values, source ChEMBL document CHEMBL4130532.

Each entry below lists one item and its recorded viability at 24 h, 10 µM value.
# MEASUREMENT PROTOCOL: Cytotoxicity against human L02 cells assessed as cell viability at 10 uM after 24 hrs by MTS assay relative to control
# Assay type: cell-based
# STUDY CONDITIONS: read-out: Activity

The cases that follow already have their viability at 24 h, 10 µM on record.
QUERY SMILES | PROPERTY NAME | REPORTED RESULT
CC1(C)C[C@H](O)[C@]2(CO)[C@H](O)[C@H](O)[C@]3(C)C(=CC[C@@H]4[C@@]5(C)CC[C@H](O)C(C)(C)[C@@H]5CC[C@]43C)[C@@H]2C1 | viability at 24 h, 10 µM | > 90%
CC(=O)O[C@H]1[C@@H](O)[C@@]2(CO)[C@@H](O)CC(C)(C)C[C@H]2C2=CC[C@@H]3[C@@]4(C)CCC(=O)C(C)(C)[C@@H]4CC[C@@]3(C)[C@@]21C | viability at 24 h, 10 µM | > 90%

Endpoint output: viability at 24 h, 10 µM of "C/C=C(/C)C(=O)O[C@H]1CC(C)(C)C[C@H]2C3=CC[C@@H]4[C@@]5(C)CC[C@H](O)C(C)(C)[C@@H]5CC[C@@]4(C)[C@]3(C)[C@@H](O)[C@@H](O)[C@@]12CO" . Value?
> 90%

Let us now turn to "CC(=O)O[C@@H]1[C@H](O)[C@]2(C)C(=CC[C@@H]3[C@@]4(C)CCC(=O)C(C)(C)[C@@H]4CC[C@]32C)[C@@H]2CC(C)(C)C[C@H](O)[C@]12CO"
> 90%

###

Each entry below lists one item and its recorded pIC50 value.
# TARGET DESC: Tyrosine-protein phosphatase non-receptor type 1 (Homo sapiens, UniProt P18031)
# Sequence (P18031 whole entry, the tested form may be a part): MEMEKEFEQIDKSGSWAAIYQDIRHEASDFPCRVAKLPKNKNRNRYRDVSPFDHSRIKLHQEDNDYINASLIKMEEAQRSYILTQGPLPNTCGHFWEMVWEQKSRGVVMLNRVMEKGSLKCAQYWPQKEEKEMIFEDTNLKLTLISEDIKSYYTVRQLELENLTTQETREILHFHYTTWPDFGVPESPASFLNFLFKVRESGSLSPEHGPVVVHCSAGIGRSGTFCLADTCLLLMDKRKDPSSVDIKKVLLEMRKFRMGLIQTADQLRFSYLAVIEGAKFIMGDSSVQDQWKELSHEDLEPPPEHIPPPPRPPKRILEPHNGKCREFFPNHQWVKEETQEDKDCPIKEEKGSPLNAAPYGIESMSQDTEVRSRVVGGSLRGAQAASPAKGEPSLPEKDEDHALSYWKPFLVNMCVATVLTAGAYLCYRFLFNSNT
# MEASUREMENT PROTOCOL: Inhibition of recombinant human GST-tagged PTP1B catalytic domain expressed in Escherichia coli BL21 using para-nitrophenyl phosphate as substrate
FYI, pIC50 means -log10 of a concentration in mol per litre.

QUERY SMILES | pIC50
C[C@H]1[C@H](C)CC[C@]2(C)CC[C@]3(C)C(=CC[C@@H]4[C@@]5(C)CC[C@H](O)C(C)(C)[C@@H]5CC[C@]43C)[C@H]12 | 4.72

Endpoint output: pIC50 of "CC(=O)O[C@@H]1[C@H](O)[C@]2(C)C(=CC[C@@H]3[C@@]4(C)CC[C@H](O)C(C)(C)[C@@H]4CC[C@]32C)[C@@H]2CC(C)(C)C[C@H](O)[C@]12CO" . Value?
4.32

Let us now turn to "CC(=O)O[C@H]1[C@@H](O)[C@@]2(CO)[C@@H](O)CC(C)(C)C[C@H]2C2=CC[C@@H]3[C@@]4(C)CCC(=O)C(C)(C)[C@@H]4CC[C@@]3(C)[C@@]21C"
4.35

Let us now turn to "C/C=C(/C)C(=O)O[C@H]1CC(C)(C)C[C@H]2C3=CC[C@@H]4[C@@]5(C)CC[C@H](O)C(C)(C)[C@@H]5CC[C@@]4(C)[C@]3(C)[C@@H](OC(C)=O)[C@@H](O)[C@@]12CO"
5.13

Let us now turn to "CC1(C)CC[C@]2(C)CC[C@@]3(C)[C@]4(C)CC[C@H]5C(C)(C)[C@@H](O)CC[C@]5(C)[C@H]4[C@H](O)C(=O)[C@]3(O)[C@@H]2C1"
5.87
